Biological target: T1, low-density lipoprotein receptor-related protein (LRP), purified (human, UniProt Q07954 20-4544)
T1 construct: mature; also called low density lipoprotein receptor-related protein/α2-macroglobulin receptor; LRP receptor
T1 sequence (Q07954 20-4544, form in doubt): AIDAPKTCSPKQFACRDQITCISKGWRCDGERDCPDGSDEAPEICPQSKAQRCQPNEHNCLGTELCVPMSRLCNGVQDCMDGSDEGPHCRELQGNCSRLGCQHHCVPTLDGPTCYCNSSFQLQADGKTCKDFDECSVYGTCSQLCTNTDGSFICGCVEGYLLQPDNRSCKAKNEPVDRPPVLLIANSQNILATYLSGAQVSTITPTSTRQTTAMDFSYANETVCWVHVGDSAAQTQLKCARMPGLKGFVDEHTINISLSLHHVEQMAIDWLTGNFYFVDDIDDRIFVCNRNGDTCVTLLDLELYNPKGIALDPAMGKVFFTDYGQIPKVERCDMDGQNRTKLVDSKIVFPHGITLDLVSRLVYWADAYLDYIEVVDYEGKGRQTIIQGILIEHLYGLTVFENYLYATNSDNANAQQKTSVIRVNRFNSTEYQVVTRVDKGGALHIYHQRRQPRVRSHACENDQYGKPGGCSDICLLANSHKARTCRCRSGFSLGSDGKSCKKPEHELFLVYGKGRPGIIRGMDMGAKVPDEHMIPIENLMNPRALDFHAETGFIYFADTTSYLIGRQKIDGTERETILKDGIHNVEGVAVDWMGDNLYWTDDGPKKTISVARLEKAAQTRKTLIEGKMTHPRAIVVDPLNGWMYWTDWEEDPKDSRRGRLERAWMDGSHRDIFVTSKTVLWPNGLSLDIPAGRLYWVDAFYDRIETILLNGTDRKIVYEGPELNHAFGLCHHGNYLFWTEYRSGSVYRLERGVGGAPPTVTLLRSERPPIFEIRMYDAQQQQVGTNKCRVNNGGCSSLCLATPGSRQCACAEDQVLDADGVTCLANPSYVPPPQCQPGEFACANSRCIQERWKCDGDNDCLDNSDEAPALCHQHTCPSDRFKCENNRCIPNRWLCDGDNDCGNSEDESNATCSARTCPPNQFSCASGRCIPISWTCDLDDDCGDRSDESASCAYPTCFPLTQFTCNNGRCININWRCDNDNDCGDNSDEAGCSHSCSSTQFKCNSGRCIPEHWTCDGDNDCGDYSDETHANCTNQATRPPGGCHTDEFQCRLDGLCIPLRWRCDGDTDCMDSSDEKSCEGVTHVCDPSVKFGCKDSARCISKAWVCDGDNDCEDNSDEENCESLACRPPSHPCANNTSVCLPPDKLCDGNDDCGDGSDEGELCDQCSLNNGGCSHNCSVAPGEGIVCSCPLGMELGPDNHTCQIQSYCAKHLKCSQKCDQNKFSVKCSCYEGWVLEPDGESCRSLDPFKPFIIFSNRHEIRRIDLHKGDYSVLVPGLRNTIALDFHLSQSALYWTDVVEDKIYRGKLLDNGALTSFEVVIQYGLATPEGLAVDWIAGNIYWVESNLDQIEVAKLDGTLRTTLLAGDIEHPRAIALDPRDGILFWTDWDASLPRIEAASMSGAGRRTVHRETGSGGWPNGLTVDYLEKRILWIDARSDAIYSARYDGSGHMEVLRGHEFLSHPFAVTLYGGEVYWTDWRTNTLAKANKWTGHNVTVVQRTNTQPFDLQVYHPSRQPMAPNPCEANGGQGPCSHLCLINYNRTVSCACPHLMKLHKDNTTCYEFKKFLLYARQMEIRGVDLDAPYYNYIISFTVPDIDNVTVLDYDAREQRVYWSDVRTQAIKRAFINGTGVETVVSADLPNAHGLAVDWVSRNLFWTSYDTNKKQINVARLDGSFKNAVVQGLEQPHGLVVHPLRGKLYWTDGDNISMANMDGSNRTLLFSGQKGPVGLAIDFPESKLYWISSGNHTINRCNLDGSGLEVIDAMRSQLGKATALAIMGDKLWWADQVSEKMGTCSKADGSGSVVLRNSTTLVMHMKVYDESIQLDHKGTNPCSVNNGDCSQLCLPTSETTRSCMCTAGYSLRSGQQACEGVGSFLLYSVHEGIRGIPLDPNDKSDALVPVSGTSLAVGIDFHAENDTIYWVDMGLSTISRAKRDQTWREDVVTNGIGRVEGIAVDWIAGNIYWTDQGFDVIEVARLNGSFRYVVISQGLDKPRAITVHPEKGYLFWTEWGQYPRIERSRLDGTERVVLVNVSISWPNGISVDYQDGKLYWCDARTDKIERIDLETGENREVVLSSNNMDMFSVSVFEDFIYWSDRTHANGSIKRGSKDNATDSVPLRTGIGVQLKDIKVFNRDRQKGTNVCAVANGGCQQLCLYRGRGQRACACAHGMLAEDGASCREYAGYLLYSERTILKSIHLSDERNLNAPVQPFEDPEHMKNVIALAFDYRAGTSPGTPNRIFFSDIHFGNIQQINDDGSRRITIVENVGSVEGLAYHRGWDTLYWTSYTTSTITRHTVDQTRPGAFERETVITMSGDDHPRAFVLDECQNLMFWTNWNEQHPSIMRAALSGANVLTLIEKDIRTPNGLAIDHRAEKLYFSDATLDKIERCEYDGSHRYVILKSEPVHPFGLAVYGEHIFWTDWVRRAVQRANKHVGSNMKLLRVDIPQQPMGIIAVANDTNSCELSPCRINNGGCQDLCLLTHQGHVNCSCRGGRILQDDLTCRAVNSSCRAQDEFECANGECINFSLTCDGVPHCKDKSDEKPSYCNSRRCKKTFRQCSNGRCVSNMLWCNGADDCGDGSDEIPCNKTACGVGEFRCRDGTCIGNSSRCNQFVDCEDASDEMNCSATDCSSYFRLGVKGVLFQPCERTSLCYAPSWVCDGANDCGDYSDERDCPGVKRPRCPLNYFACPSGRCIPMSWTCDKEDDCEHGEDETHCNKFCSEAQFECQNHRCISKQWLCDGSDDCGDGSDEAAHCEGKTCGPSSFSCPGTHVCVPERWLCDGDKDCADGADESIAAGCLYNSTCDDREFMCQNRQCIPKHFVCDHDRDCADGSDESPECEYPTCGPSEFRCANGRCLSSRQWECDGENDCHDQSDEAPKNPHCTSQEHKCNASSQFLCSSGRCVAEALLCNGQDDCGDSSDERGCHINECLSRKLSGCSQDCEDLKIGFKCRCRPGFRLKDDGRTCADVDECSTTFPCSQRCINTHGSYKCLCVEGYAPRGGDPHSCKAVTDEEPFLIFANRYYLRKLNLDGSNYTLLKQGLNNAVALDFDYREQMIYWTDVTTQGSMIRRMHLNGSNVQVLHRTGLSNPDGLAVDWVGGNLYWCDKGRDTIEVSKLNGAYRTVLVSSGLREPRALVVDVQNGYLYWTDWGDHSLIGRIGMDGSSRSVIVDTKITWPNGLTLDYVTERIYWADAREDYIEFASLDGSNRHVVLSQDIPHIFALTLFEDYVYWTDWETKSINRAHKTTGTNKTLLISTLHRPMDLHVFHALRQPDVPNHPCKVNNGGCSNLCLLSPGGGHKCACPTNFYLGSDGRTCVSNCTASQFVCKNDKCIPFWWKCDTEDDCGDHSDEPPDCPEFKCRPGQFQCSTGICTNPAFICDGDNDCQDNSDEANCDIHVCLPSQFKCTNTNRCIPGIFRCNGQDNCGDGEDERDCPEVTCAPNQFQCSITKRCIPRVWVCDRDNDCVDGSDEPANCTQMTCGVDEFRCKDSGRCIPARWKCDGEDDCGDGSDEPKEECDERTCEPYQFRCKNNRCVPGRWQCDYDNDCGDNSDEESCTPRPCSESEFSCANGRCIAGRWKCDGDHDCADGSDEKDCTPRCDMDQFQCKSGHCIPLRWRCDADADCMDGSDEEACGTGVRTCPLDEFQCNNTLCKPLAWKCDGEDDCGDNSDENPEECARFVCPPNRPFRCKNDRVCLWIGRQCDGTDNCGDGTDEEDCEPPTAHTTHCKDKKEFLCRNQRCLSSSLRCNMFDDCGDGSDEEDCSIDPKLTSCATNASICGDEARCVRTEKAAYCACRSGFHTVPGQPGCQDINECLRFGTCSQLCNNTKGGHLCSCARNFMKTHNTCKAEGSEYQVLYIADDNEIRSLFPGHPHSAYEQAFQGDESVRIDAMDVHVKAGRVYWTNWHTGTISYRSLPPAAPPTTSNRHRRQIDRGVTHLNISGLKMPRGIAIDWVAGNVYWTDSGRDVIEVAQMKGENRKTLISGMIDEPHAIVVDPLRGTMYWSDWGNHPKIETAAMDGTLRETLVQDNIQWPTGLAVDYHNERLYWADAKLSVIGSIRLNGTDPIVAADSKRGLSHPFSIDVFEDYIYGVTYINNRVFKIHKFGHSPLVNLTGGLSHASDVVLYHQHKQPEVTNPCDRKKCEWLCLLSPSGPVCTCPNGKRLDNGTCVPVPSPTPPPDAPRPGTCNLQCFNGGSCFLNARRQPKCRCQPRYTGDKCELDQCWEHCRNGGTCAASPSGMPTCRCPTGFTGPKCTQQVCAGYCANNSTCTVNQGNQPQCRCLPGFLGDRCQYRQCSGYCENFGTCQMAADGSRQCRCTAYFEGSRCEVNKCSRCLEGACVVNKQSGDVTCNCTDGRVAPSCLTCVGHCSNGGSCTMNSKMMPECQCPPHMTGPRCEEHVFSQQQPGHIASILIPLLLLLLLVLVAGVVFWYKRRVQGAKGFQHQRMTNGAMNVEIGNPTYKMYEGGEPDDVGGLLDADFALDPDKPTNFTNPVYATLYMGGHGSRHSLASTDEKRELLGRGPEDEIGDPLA
Assay: SPR, BIAcore 3000, one-site model, KD = koff/kon

[
  {
    "Binder": "recombinant A2 mutant #18 (Lys-512 to Ala) (other, hx-A2 form from Sf9 cells; not shown: N-terminal hx leader (6xHis tag, vector-derived linker, factor Xa site)) SGAKKHPKTWVHYIAAEEEDWDYAPLVLAPDDRSYKSQYLNNGPQRIGRKYKKVRFMAYTDETFKTREAIQHESGILGPLLYGEVGDTLLIIFKNQASRPYNIYPHGITDVRPLYSRRLPKGVKHLKDFPILPGEIFKYAWTVTVEDGPTKSDPRCLTRYYSSFVNMERDLASGLIGPLLICYKESVDQRGNQIMSDKRNVILFSVFDENRSWYLTENIQRFLPNPAGVQLEDPEFQASNIMHSINGYVFDSLQLSVCLHEVAYWYILSIGAQTDFLSVFFSGYTFKHKMVYEDTLTLFPFSGETVFMSMENPGLWILGCHNSDFRNRGMTALLKVSSCDKNTGDYYEDSYEDISAYLLSKNNAIEPR",
    "Kd": "21 nM"
  }
]

The values you see were collected from patent US20070232789A1.
